meta.source: ChEMBL document CHEMBL5380837

Target system: Peroxisome proliferator-activated receptor delta (Homo sapiens) (UniProt Q03181)
Sequence (whole entry): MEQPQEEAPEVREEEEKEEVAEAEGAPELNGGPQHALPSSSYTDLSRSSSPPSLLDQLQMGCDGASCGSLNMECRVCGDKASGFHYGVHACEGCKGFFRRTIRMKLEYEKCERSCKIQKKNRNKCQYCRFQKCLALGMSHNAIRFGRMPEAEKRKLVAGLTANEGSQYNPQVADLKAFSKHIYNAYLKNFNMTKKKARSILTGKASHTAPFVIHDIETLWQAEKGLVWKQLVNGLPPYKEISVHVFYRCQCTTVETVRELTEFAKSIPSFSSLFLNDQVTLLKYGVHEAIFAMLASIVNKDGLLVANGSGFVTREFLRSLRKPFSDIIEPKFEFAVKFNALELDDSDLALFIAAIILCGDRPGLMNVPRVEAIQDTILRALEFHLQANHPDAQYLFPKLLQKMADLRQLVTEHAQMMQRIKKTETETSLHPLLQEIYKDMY
Procedure details: Binding affinity to PPARdelta (unknown origin) at 30 uM by TR-FRET based LanthaScreen competitive binding assay relative to control
Known Activity of a selection of compounds
Attribute measured: Activity (%)

>>> df
                                   compound  unit_string  numeric_readout
0  O[C@@H]1[C@H](O)C=C[C@H]1Cn1cnc2c(NCc3cccc(F)c3)nc(Cl)nc21            %             28.4
1  O[C@H]1[C@H](Cn2cnc3c(NCc4cccc(Br)c4)ncnc32)CC[C@H]1O            %             12.9
2  O[C@H]1[C@H](Cn2cnc3c(NCc4cccc(F)c4)nc(Cl)nc32)CC[C@H]1O            %               37
3  O[C@@H]1[C@H](O)C=C[C@H]1Cn1cnc2c(NCc3cccc(Cl)c3)ncnc21            %              5.9
4  O[C@@H]1C[C@@H]2C[C@]2(Cn2cnc3c(NCc4cccc(I)c4)ncnc32)[C@@H]1O            %              8.6
